- assay_protocol: protein stability index of a GFP-peptide fusion (yeast GPS) (PSI 1-4); higher = more stable; sorted into four equal gates, so the index is relative within each strain
- measurement_context: doa10∆
readout_label: protein stability index
A bare number is all that is needed in reply.

# count of solved cases: 5
IDLLTFQYGSRLPTFLK [RPP1]    1.89
ERDTFSDFTFPEYYSTA [DIS3]    1.66
PSSMATLLKNLRKKLNF [YJR042W/NUP85]    2.91
VSFYFEDGTIESYNQND [SIN4]    2.2
MCHIVRKFHELNDHIDD [GRR1]    2.13

Consider LMEASDAFRVHICGICG [RPB2] . Its measured protein stability index is 2.08

Record GNDTISKFYNMKQPYVF [SSN2] . Reported protein stability index: 3.12

# protein stability index (sequence: LKSKVIDSPELLSLIST [RPN7] ) is 2.48

PYDSNNSNTNLNSLSPQ [SWI1] has a reported protein stability index of 2.96

Recorded result, NMFELAQQLVGVYKRDN [SMC4] , protein stability index: 1.08

For MHLMALHIHGSSNPLGI [COB] the sequence record lists protein stability index as 2.31

----------
Reported protein stability index values for a set of sequences
- assay_protocol: protein stability index of a GFP-peptide fusion (yeast GPS) (PSI 1-4); higher = more stable; sorted into four equal gates, so the index is relative within each strain
- measurement_context: pdr5∆
# output: bare number, no unit

Below, 2 sequences whose answers are already recorded.
AARKAEKAKSAGVQGSK [RPL24B]    3.11
IHGQDFQFFPKELDALQ [ISW2]    2.75

protein stability index in this record for HMADAKIMPKDILQITK [SIR4] : 3.29

The recorded protein stability index for entry YQWRDLIARRDDESPRF [RRP6] equals 3.42

Recorded result, KSAENIIKMTIPYAAKL [RET1] , protein stability index: 2.48

AQKRVVSYMMPSLYRLL [SRB8] yielded protein stability index of 1.19

Consider DDDILIIRPILGKVRFA [SRB4] . Its measured protein stability index is 1.66

Recorded result, AAFKDIAKRQFKEILTV [RRP40] , protein stability index: 2.54

----------
Below, each of the sequences is paired with its reported protein stability index value.
- assay_protocol: protein stability index of a GFP-peptide fusion (yeast GPS) (PSI 1-4); higher = more stable; sorted into four equal gates, so the index is relative within each strain
- measurement_context: doa10∆

DYMYENGKLTSANERLF [YML031W/NDC1]    3.37
KPMAFSNTTTHVPEKKS [MTR3]    1.46
ESIDVDMDAESNESQNG [SMC3]    3.21
RVMKSLSINEKDFVTMA [YCG1]    2.35
SDGIVLAAERKVTSTLL [PRE9]    2.39

Please fill in: protein stability index reported for QTDAIKSDEAKWKPVLS [RPN5] = 2.62

So for LKKIRAHRGIRHFWGLR [RPS18A] , the logged protein stability index turned out to be 3.03

The sequence DFLLSDWNKRFSHLAGG [BRR2] showed protein stability index equal to 2.71

Field protein stability index (entry RNIILEARFDVLITSYE [ISW2] ) reads 2.85

The value of protein stability index measured for the sequence KMSDGFNGADIRNCATE [RPT4] turned out to be 3.43
